- TARGET_SYSTEM: p38 MAP Kinase a (Homo sapiens, UniProt Q16539)
- Construct: purchased Upstate (Dundee UK)
- Sequence (Q16539 whole entry): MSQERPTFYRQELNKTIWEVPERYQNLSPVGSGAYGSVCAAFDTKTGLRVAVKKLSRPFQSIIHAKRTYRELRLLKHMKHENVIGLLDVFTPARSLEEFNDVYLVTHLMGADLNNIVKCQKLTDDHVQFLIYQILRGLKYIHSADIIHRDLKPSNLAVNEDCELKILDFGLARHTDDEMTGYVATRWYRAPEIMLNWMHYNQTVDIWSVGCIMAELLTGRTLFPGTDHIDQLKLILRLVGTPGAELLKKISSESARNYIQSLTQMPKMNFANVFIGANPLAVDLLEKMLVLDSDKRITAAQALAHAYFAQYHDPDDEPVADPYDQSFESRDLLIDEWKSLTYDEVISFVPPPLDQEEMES
- ASSAY_PROTOCOL: p38 MAP Kinase activity, radiometric filter-binding assay (Upstate)
- Type: biochemical
- MEASUREMENT_CONDITIONS: IC50 range; read-out: Inhibitor activity versus p38 MAPKa
pIC50: −log10 of the molar value.
OBSERVATION_TYPE: pIC50

CC(C)C[C@H](NCCc1ccc(-n2c(N)c(C(=O)c3ccc(F)cc3F)ccc2=O)s1)C(=O)OC(C)(C)C [Example 50] | 6.00 to 7.00
Nc1c(C(=O)c2ccc(F)cc2F)ccc(=O)n1-c1ccc(CCN[C@H](C(=O)OC2CCCC2)c2ccccc2)cc1 [Example 1] | 6.00 to 7.00
CC(C)[C@H](NCCc1ccc(-n2c(N)c(C(=O)c3ccc(F)cc3F)ccc2=O)cc1)C(=O)OC1CCCC1 [Example 5] | 6.00 to 7.00

Turning now to a further compound:
Query :: # pIC50 lookup, item CC(C)C[C@H](NCCc1cc(F)c(-n2c(N)c(C(=O)c3ccc(F)cc3F)ccc2=O)c(F)c1)C(=O)O [Example 67]
Result :: > 7.00

The origin of these recorded values is patent US20100267774A1.
